Assay: ABTS cation radical scavenging activity
Details: isolated components; 50% free radical scavenging; read-out: SC50 ABTS
Procedure: The ABTS cation radical scavenging effect was measured, as previously described by. […] The working solution was diluted by EtOH to reach the absorbance of 0.70 ± 0.02 at 740 nm for further experiments. […] The mixture was incubated at room temperature for 6 min, and the antioxidant activity of the mixture was determined by the decrease in absorbance measured at 740 nm.
Value kind: pEC50
Reminder that pEC50 means the negative base-10 logarithm of the concentration expressed in mol/L.

COc1cc(CCc2cc(OC)c(O)c(OC)c2)ccc1O
5.12
Cc1cc(C(C)(C)C)c(O)c(C(C)(C)C)c1 [BHT, butylated hydroxytoluene, reference compound]
4.27
COc1cc(O)cc(CCc2ccc(O)c(OC)c2)c1
4.91
COc1cc(O)cc2ccc3cccc(O)c3c12
4.99

Proceeding to the next compound to report its pEC50.
*Q* Need pEC50, item COc1cc(O)cc(CCc2cccc(O)c2)c1
*A* 4.52

----------
Target: acetylcholinesterase (AChE) (Electrophorus electricus, UniProt O42275)
Construct: purchased Sigma-Aldrich (St. Louis, MO, USA)
Sequence (O42275 24-633): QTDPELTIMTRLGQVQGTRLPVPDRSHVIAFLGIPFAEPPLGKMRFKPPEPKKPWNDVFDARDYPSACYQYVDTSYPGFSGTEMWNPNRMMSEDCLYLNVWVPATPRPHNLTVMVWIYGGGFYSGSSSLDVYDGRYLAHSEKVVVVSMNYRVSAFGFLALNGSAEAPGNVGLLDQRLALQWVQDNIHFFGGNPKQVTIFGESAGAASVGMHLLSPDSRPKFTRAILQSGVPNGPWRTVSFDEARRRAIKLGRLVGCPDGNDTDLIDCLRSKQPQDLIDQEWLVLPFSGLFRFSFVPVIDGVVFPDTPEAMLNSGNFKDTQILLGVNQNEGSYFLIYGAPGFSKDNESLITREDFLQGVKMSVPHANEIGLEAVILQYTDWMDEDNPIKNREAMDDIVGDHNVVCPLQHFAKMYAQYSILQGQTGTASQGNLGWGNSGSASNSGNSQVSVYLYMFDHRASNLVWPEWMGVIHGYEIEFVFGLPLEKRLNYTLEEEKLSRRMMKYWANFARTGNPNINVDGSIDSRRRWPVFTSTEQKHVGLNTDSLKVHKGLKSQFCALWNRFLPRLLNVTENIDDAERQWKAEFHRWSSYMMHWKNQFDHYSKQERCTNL
Experiment: biochemical
Value kind: IC50 (µM)
Write the number in µM without appending the unit.

*Q* Find IC50 (acetylcholinesterase (AChE) (Electrophorus electricus, UniProt O42275)) for the entry COc1cc(O)cc2ccc3cccc(O)c3c12
*A* 162

----------
Target: acetylcholinesterase (AChE) (Electrophorus electricus, UniProt O42275)
Construct: purchased Sigma-Aldrich (St. Louis, MO, USA)
Assay: Bioaffinity ultrafiltration assay with acetylcholinesterase
Type: binding
Details: components of EtOAc extract; EF = (A1 − A2)/A0 × 100%
Method: The bioaffinity ultrafiltration assay was conducted using a previously described procedure. […] The reaction was conducted at 37 °C for 30 min, then centrifuged using a 14,000× g ultracentrifuge filter at 30 °C for 15 min. The filtrate was removed and 200 μL of Tris-HCl buffer was added to the ultracentrifuge filter and centrifuged at 14,000× g for 15 min at 30 °C. The previous step was repeated 3 times and the filtrate was removed. […]
Value kind: AChE EF (enrichment factor) (%)
Write the number in % without appending the unit.

COc1ccc2c(c1)CCc1cc(O)cc(OC)c1-2
2.00
COc1c(O)cc2ccc3cc(O)ccc3c2c1OC
29.56
COc1ccc(CCc2cc(OC)c(OC)c(OC)c2)cc1O
0.23
COc1cc(CCc2cc(O)cc(O)c2)ccc1O
5.83
Oc1ccc2c(c1)CCc1cc(O)cc(O)c1-2
1.32
COc1cc(O)cc(CCc2cccc(O)c2)c1
31.87
COc1cc(O)cc2ccc3cccc(O)c3c12
66.31
COc1cc(O)cc(CCc2ccc(O)c(OC)c2)c1
54.60
COc1cc(CCc2cc(OC)c(O)c(OC)c2)ccc1O
59.48

*Q* Need AChE EF (enrichment factor), item Oc1ccc(CCc2cc(O)cc(O)c2)cc1 [Dihydroresveratrol]
*A* 0.08

----------
Target: acetylcholinesterase (AChE) (Electrophorus electricus)
Construct: purchased Sigma-Aldrich (St. Louis, MO, USA)
Test: biochemical
Details: isolated compounds; read-out: IC50 AChE (converted)
Value kind: IC50 (µM)
Write the number in µM without appending the unit.

COc1cc(CCc2cc(OC)c(O)c(OC)c2)ccc1O
165
O=C(/C=C/c1ccc(O)c(O)c1)O[C@@H]1C[C@](O)(C(=O)O)C[C@@H](O)[C@H]1O [Chlorogenic acid, chlorogenic acid, reference compound]
236

*Q* Need IC50, item COc1cc(O)cc(CCc2ccc(O)c(OC)c2)c1
*A* 176

*Q* Need IC50, item COc1cc(O)cc(CCc2cccc(O)c2)c1
*A* 258

----------
Assay: DPPH radical scavenging activity
Conditions: isolated components; 50% free radical scavenging; read-out: SC50 DPPH
Value kind: pEC50
Reminder that pEC50 means the negative base-10 logarithm of the concentration expressed in mol/L.

COc1cc(O)cc(CCc2ccc(O)c(OC)c2)c1
4.45

*Q* Need pEC50, item COc1cc(CCc2cc(OC)c(O)c(OC)c2)ccc1O
*A* 4.93

*Q* Need pEC50, item Cc1cc(C(C)(C)C)c(O)c(C(C)(C)C)c1 [BHT, butylated hydroxytoluene, reference compound]
*A* 4.04

*Q* Need pEC50, item COc1cc(O)cc2ccc3cccc(O)c3c12
*A* 4.57

----------
# pIC50 per entry
Biological target: α-glucosidase
Test: α-Glucosidase inhibitory activity assay
Details: isolated compounds
Reminder that pIC50 means the negative base-10 logarithm of the concentration expressed in mol/L.

Check out these entries, answers already filled in.
COc1cc(O)cc2ccc3cccc(O)c3c12 [Moscatin (2), moscatin]
3.32
COc1cc(O)cc(CCc2ccc(O)c(OC)c2)c1 [Gigantol (1), gigantol]
3.33
COc1cc(CCc2cc(OC)c(O)c(OC)c2)ccc1O [Dendrophenol (4), dendrophenol]
3.22

Proceeding to the next compound to report its pIC50.
*Q* Need pIC50, item COc1cc(O)cc(CCc2cccc(O)c2)c1 [Batatasin III (3), batatasin III]
*A* 3.14

----------
Biological target: inducible nitric oxide synthase (iNOS) (Mus musculus, UniProt P29477)
Construct: purchased Sigma-Aldrich (St. Louis, MO, USA)
Assay: Bioaffinity ultrafiltration assay with inducible nitric oxide synthase
Assay type: binding
Conditions: components of EtOAc extract; EF = (A1 − A2)/A0 × 100%
Procedure: The bioaffinity ultrafiltration assay was conducted using a previously described procedure. […] The reaction was conducted at 37 °C for 30 min, then centrifuged using a 14,000× g ultracentrifuge filter at 30 °C for 15 min. The filtrate was removed and 200 μL of Tris-HCl buffer was added to the ultracentrifuge filter and centrifuged at 14,000× g for 15 min at 30 °C. The previous step was repeated 3 times and the filtrate was removed. […]
Label scheme for iNOS EF (enrichment factor): lower than 2% is Not fulfilled, 2% and above is Fulfilled.

Previously resolved entries follow.
COc1cc(O)cc(CCc2cccc(O)c2)c1
Fulfilled
COc1cc(O)cc(CCc2ccc(O)c(OC)c2)c1
Fulfilled
COc1cc(CCc2cc(OC)c(O)c(OC)c2)ccc1O
Fulfilled
Oc1ccc2c(c1)CCc1cc(O)cc(O)c1-2
Not fulfilled
COc1c(O)cc2ccc3cc(O)ccc3c2c1OC
Fulfilled

*Q* Evaluate Oc1ccc(CCc2cc(O)cc(O)c2)cc1 [Dihydroresveratrol] : iNOS EF (enrichment factor) at minimum 2%?
*A* Not fulfilled

*Q* Evaluate COc1ccc2c(c1)CCc1cc(O)cc(OC)c1-2 : iNOS EF (enrichment factor) at minimum 2%?
*A* Fulfilled

*Q* Evaluate COc1ccc(CCc2cc(OC)c(OC)c(OC)c2)cc1O : iNOS EF (enrichment factor) at minimum 2%?
*A* Not fulfilled

*Q* Evaluate COc1cc(CCc2cc(O)cc(O)c2)ccc1O : iNOS EF (enrichment factor) at minimum 2%?
*A* Not fulfilled

*Q* Evaluate COc1cc(O)cc2ccc3cccc(O)c3c12 : iNOS EF (enrichment factor) at minimum 2%?
*A* Fulfilled
